Test: Metabolic stability in rat liver microsome assessed as half life
Format: ADME
Settings: liver microsomes
RESULT TYPE: half-life (min)
Please state the figure in min; there is no need to write the unit.

(Q) Fill blank: measured half-life of the compound CCCNNC(=O)c1ccc(CNC(=O)c2ncc(CNc3ccccc3)s2)cc1 is ____.
(A) 23.7

* * *

Biological target: UniProtKB O15379
Sequence (O15379 whole entry): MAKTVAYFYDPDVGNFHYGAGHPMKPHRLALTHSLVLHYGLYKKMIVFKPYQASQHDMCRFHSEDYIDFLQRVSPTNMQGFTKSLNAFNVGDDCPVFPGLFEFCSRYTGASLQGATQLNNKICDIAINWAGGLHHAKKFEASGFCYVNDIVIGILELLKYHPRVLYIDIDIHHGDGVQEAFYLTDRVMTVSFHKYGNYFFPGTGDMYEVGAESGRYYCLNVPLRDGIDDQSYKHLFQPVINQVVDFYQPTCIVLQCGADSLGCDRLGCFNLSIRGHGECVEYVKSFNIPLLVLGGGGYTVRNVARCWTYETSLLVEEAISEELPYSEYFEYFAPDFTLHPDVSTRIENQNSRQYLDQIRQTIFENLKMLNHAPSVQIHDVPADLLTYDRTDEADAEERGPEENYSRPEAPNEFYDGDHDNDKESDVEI
Test: Inhibition of human recombinant HDAC3 using Ac-Leu-Gly-Lys (Ac)-AMC as substrate preincubated with compound for 10 mins followed by substrate addition and measured after 45 mins by TECAN microtiter plate reader analysis
RESULT TYPE: IC50 (µM)

{"STRUCTURE SMILES STRING": "Nc1ccccc1NC(=O)c1ccc(-c2ncc(CNc3ccccc3)s2)cc1", "TGT": "UniProtKB O15379", "IC50 (µM)": 0.066}
{"STRUCTURE SMILES STRING": "Nc1ccccc1NC(=O)c1ccc(CNC(=O)c2ccc(-c3ncc(CNc4ccccc4)s3)cc2)cc1", "TGT": "UniProtKB O15379", "IC50 (µM)": 0.14}
{"STRUCTURE SMILES STRING": "Nc1ccccc1NC(=O)/C=C/c1ccc(-c2ncc(CNc3ccccc3)s2)cc1", "TGT": "UniProtKB O15379", "IC50 (µM)": 0.11}
{"STRUCTURE SMILES STRING": "Nc1ccccc1NC(=O)CCCCCC(=O)Nc1ccc(-c2ncc(CNc3ccccc3)s2)cc1", "TGT": "UniProtKB O15379", "IC50 (µM)": 0.15}

I = Nc1ccccc1NC(=O)/C=C/c1ccc(CNC(=O)c2ccc(-c3ncc(CNc4ccccc4)s3)cc2)cc1
II = Nc1ccccc1NC(=O)c1ccc(NC(=O)c2ccc(-c3ncc(CNc4ccccc4)s3)cc2)cc1
(Q) Which of these two has the smaller recorded IC50: I or II ? Pick one; state its label.
(A) II
